Taken from BindingDB's records for doi:10.1021/jm00128a043.

TEST_METHOD_NOTES: Inhibition of Staphylococcus aureus DHFR
MEASURE_NAME: pKi
Reminder that pKi means the negative base-10 logarithm of the concentration expressed in mol/L.

Q. Write down pKi measured for item `CCOc1cc(Cc2cnc(N)nc2N)cc(OC)c1OC`
A. 8.60

Q. Give the measured pKi for `C=CCc1cc(Cc2cnc(N)nc2N)cc(OC)c1OC`
A. 8.55

Q. Output pKi of `CCCOc1cc(Cc2cnc(N)nc2N)cc(OC)c1OC`
A. 8.85

Q. Answer with reported pKi of `C/C=C/c1cc(Cc2cnc(N)nc2N)cc(OC)c1OC`
A. 8.85

###

TEST_METHOD_NOTES: Antibacterial activity against Staphylococcus aureus
Field: Ki. Provide a value for each of the molecules that follow.
Your answer is read as nM, so omit the unit and give the number.

Q. Query Ki for `CCCc1cc(Cc2cnc(N)nc2N)cc(CCC)c1OC`
A. 3.2

Q. Specify measured Ki for `C=CCOc1cc(Cc2cnc(N)nc2N)cc(OC)c1OC` .
A. 3
